Reference source: patent US20240228562A1

Target: T1, Rat CTGF (Rattus norvegicus, UniProt Q9R1E9)
T1 construct: purchased R&D Systems
T1 sequence (Q9R1E9 25-347): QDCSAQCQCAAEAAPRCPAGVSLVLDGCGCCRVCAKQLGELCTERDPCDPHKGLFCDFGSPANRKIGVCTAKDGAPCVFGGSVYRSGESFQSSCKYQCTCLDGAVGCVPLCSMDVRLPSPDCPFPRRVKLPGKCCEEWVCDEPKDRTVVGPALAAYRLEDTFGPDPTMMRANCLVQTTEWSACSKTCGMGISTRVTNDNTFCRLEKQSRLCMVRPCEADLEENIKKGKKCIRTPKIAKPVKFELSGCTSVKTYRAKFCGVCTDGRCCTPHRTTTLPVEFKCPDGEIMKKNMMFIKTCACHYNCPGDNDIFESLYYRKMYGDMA
Experiment: SPR binding kinetics and affinity, rat CTGF
Details: 25° C., 1:1 binding model
Reported pKd by item:
Interpret pKd as the negative base-10 log of the concentration measured in mol/L.

{"MOLECULE": "SEQ ID NO: 25: parent CTGF-binding hNGAL lipocalin mutein (protein, lipocalin mutein) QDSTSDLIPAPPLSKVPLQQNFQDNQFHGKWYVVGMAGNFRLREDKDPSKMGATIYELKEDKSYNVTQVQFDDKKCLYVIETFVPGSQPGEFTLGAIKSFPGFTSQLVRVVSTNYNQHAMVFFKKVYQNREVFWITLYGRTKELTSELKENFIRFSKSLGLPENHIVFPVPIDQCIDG", "pKd": 7.56}

// sample SEQ ID NO: 3: parent CTGF-binding hNGAL lipocalin mutein (protein, lipocalin mutein) QDSTSDLIPAPPLSKVPLQQNFQDNQFHGKWYVVGRAGNNRLREDKDPPKMWATIYELKEDKSYNVTHVHFMTKKCRYIIDTFVPGSQPGEFTLGAIKSGPGMTSPLVRIVSTNYNQHAMVFFKWVNQNREWFTITLYGRTKELTSELKENFIRFSKSLGLPENHIVFPVPIDQCIDG , its pKd was 7.41

// sample SEQ ID NO: 9: parent CTGF-binding hNGAL lipocalin mutein (protein, lipocalin mutein) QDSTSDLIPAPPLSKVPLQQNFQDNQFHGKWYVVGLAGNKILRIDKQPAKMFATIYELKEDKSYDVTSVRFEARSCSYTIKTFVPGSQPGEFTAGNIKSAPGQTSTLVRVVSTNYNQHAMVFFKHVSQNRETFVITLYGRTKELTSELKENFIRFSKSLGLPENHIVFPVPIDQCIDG , its pKd was 7.80
